test system: UACC-257 melanoma; assay: NCI tumour cell line growth inhibition, 48 h
Observable: TGI

Sample answers from the record:
Compound | TGI
O=C1/C(=C/c2ccc(Cl)cc2)CCCc2ccc(F)cc21 | 42.9 µM
Cc1nc2c(n1CC(C)(C)C)C(=O)c1ccccc1C2=O | > 100 µM
N#Cc1ccc(-c2nc(C#N)c(N)o2)cc1 | > 10 µM
COC(=O)c1nc(NN)[nH]c(=O)c1CCCCCc1c(C(=O)OC)[nH]c(NN)cc1=O | > 100 µM
C/C(=N/N(C=O)C[n+]1ccccc1)C(CN(CC(C)C)CC(C)C)C(=O)Nc1ccc(C)cc1C (configuration not stated) | > 100 µM

The following compounds each have a reported value; give each one's TGI.
1. Cc1ccc(C(=O)/C(=C/c2ccc([N+](=O)[O-])cc2)S(=O)Cc2ccccc2)cc1 (configuration not stated)
2. Cc1cc([N+](=O)[O-])c(C)c2c1[nH]c1ccc(/C(CCC3CCCC3)=N\N)cc12
3. Fc1cccc(COc2ccc(Nc3ncnc4sc(-c5ccco5)cc34)cc2Cl)c1
4. COc1cc(-c2oc3ccccc3c(=O)c2O)cc(OC)c1OC
5. CC[C@H](C)[C@H](NC(=O)c1cnccn1)C(=O)N(C)[C@H](C[C@@H](OC(C)=O)c1nc(C(=O)N[C@@H](Cc2ccccc2)C[C@H](C)C(=O)OC)cs1)C(C)C

**A:**
["3.08 µM", "42.7 µM", "> 25 µM", "> 100 µM", "22.1 µM"]

----------
Can you tell me TGI for the items I'm about to list?
test system: SNB-75 CNS; assay: NCI tumour cell line growth inhibition, 48 h

Below are worked cases with known answers.
Molecule | Assay Value
COc1ccc(OC)c(NC(=O)C(=O)C(C(=O)c2ccccc2F)C2OC(=O)c3ccccc32)c1 (centres undefined) | > 100 µM
CC(C)n1c(/C=C/[C@@H](O)C[C@@H](O)CC(=O)O)c(-c2ccc(F)cc2)c2ccccc21 | > 100 µM
CCN(CC)c1ccc(NC(=S)NN(C)C)cc1 | > 10 µM

The record that follows has no TGI shown yet.
**Q:** What does the record list as TGI for C=C(C)[C@H]1CC(=O)/C(C)=C\CC/C(C)=C/CC[C@@]2(C)O[C@@H]2C1 ?
**A:** > 100 µM

----------
system: NCI/ADR-RES ovarian; experiment: NCI tumour cell line growth inhibition, 48 h
Observable: TGI

Examples with answers:
Compound | TGI
COc1cc(/C=C2\CN(C)CC3=C2Nc2nc(SC)[nH]c(=O)c2C3c2cc(OC)c(OC)c(OC)c2)cc(OC)c1OC (stereo not drawn) | > 100 µM
CCCCN1C(=O)CC2[C@@H]3CCc4cc(OC)ccc4C3CC[C@]2(C)C1=O (stereo partly drawn) | > 10 µM

**Q:** Tell me the measured TGI of NCCN(CCN(C(=O)Nc1ccccc1)c1ccccc1)C(=O)Nc1ccccc1 , please.
**A:** > 100 µM

----------
tested on: SR leukemia; test: NCI tumour cell line growth inhibition, 48 h
Please enter Criterion met where TGI is greater than or equal to 50 µM, and Criterion not met where it is lower.

Compound | Assigned Category
O=CN1CCN(C(=O)c2ccco2)C1=S | Criterion not met
N#C/C(=C\c1cccc(Br)c1)c1nc2ccccc2c(=O)[nH]1 | Criterion met
COC(=O)c1nc(NN)[nH]c(=O)c1CCCCCc1c(C(=O)OC)[nH]c(NN)cc1=O | Criterion met
Cc1cc([N+](=O)[O-])c(C)c2c1[nH]c1ccc(/C(CCC3CCCC3)=N\N)cc12 | Criterion met
COC(=O)C1=C(C)NC(C)=C(C(=O)OC)C1c1cccc(N=O)c1 | Criterion met
COc1ccc(OC)c(-c2cc(-c3ccccc3)nn2-c2ccc(S(=O)(=O)NC(C)=O)cc2)c1 | Criterion met

**Q:** Decide: is the reported value of TGI for O=C1c2cccnc2S(=O)(=O)N1c1ccc([N+](=O)[O-])cc1 equal to or greater than 50 µM?
**A:** Criterion met

**Q:** Does TGI meet or surpass 50 µM for N=C(N)SCc1cn2ccccc2n1 ?
**A:** Criterion met

**Q:** Kindly determine if TGI recorded for COc1ccc2nc(-c3ccccc3)cc(Nc3cccc(/C(C)=N\O)c3)c2c1 is above or exactly 50 µM.
**A:** Criterion met
